# Tested on: mouse long-term hematopoietic stem cells
# MEASUREMENT_DESCRIPTION: Reproducibility and concentration dependence test: 1-week culture of sorted Hoxb5-tri-mCherry mouse long-term hematopoietic stem cells, flow cytometry
# Type: cell-based
# TEST_CONDITIONS: Table 4; compound 0.3 μM; day 7 of culture; n=2
ASSAY_METRIC: KLS-positive rate (%)
The answer is to be given in %; state only the numeric part.

// solved cases for KLS-positive rate follow
CC(=O)OCCOC1O[C@@H]2O[C@@]3(C)CC[C@H]4[C@H](C)CC[C@@H]([C@H]1C)[C@@]24OO3 (stereo in doubt) [Example 1-26] ... 68.5
CC1=CO[C@@H]2O[C@@]3(C)CC[C@H]4[C@H](C)CC[C@@H]1[C@@]24OO3 [Example 1-28] ... 13.5
CS[C@H]1O[C@@H]2O[C@@]3(C)CC[C@H]4[C@H](C)CC[C@@H]([C@H]1C)[C@@]24OO3 [Example 1-4] ... 37.9
CC(C)O[C@H]1O[C@@H]2O[C@@]3(C)CC[C@H]4[C@H](C)CC[C@@H]([C@H]1C)[C@@]24OO3 [Example 1-19] ... 41.7
CC(=O)O[C@@H]1O[C@@H]2O[C@@]3(C)CC[C@H]4[C@H](C)CC[C@@H]([C@H]1C)[C@@]24OO3 [Example 1-14] ... 30.1

// field: KLS-positive rate; key: C[C@H]1[C@@H](OC2CCCCC2)O[C@@H]2O[C@@]3(C)CC[C@H]4[C@H](C)CC[C@@H]1[C@@]24OO3 [Example 1-20] ; value = 0.0

Value of measured KLS-positive rate for the entry C[C@H]1[C@H](Oc2ccccc2)O[C@@H]2O[C@@]3(C)CC[C@H]4[C@H](C)CC[C@@H]1[C@@]24OO3 [Example 1-25] : 0.0

* * *

In this section we review reported mCherry-positive rate values for a set of compounds.
# Tested on: mouse long-term hematopoietic stem cells
# MEASUREMENT_DESCRIPTION: Reproducibility and concentration dependence test: 1-week culture of sorted Hoxb5-tri-mCherry mouse long-term hematopoietic stem cells, flow cytometry
# Assay type: cell-based
# TEST_CONDITIONS: Table 4; compound 1 μM; day 7 of culture; n=2
Just the number please, in %, no unit attached.

Answered cases to consult:
C[C@H]1[C@@H](C(N)=O)O[C@@H]2O[C@@]3(C)CC[C@H]4[C@H](C)CC[C@@H]1[C@@]24OO3 [Example 1-15] ... 47.3
C[C@H]1[C@H](CN)O[C@@H]2O[C@@]3(C)CC[C@H]4[C@H](C)CC[C@@H]1[C@@]24OO3 [Example 1-18] ... 19.2
C[C@H]1[C@H](C(=O)O)O[C@@H]2O[C@@]3(C)CC[C@H]4[C@H](C)CC[C@@H]1[C@@]24OO3 [Example 1-8] ... 12.0
C[C@H]1[C@@H](OCc2ccccc2)O[C@@H]2O[C@@]3(C)CC[C@H]4[C@H](C)CC[C@@H]1[C@@]24OO3 [Example 1-24] ... 50.0
C[C@H]1[C@@H](C)O[C@@H]2O[C@@]3(C)CC[C@H]4[C@H](C)CC[C@@H]1[C@@]24OO3 [Example 1-6] ... 24.4

get_value(item= CS[C@H]1O[C@@H]2O[C@@]3(C)CC[C@H]4[C@H](C)CC[C@@H]([C@H]1C)[C@@]24OO3 [Example 1-4] , readout=mCherry-positive rate) returns 85.2

COCCO[C@H]1O[C@@H]2O[C@@]3(C)CC[C@H]4[C@H](C)CC[C@@H]([C@H]1C)[C@@]24OO3 [Example 1-23] yielded mCherry-positive rate of 72.7

compound C[C@H]1[C@@H](OC2CCCCC2)O[C@@H]2O[C@@]3(C)CC[C@H]4[C@H](C)CC[C@@H]1[C@@]24OO3 [Example 1-20] , mCherry-positive rate observed: 0.0

Kindly note the recorded mCherry-positive rate for CC(=O)OCCOC1O[C@@H]2O[C@@]3(C)CC[C@H]4[C@H](C)CC[C@@H]([C@H]1C)[C@@]24OO3 (stereo in doubt) [Example 1-26] , which is 96.7

Note to self: mCherry-positive rate recorded for CC(C)O[C@H]1O[C@@H]2O[C@@]3(C)CC[C@H]4[C@H](C)CC[C@@H]([C@H]1C)[C@@]24OO3 [Example 1-19] was 50.0

What the record says about C[C@H]1[C@@H](OCC(F)(F)F)O[C@@H]2O[C@@]3(C)CC[C@H]4[C@H](C)CC[C@@H]1[C@@]24OO3 [Example 1-22] : mCherry-positive rate is 0.0
